Hi there, I'd appreciate the recorded IC50 for every entry that follows.
Assay: microbe, parasite or virus in culture
Conditions: Mycobacterium tuberculosis, 72 h, read-out: pIC50 (converted)

# MOLECULE, IC50
data = [
    ("NCCc1nsc2ccccc12", "129 µM"),
]

Each of the following entries comes with a recorded value; kindly state IC50 for each.
1. N#Cc1ccc(NC2CCN(c3ncccn3)CC2)cc1C(F)(F)F
2. Cc1ccc(C2(O)CCNC2)cc1 (stereo unspecified)
3. NCc1cc(Oc2cccc(F)c2)ccn1
4. Cc1nc(-c2c[nH]c(C(=O)N3CCCC3)c2)cs1

1. 12.2 µM
2. 181 µM
3. 45.4 µM
4. 241 µM
